Data provenance is ChEMBL document CHEMBL5512671.

Target: Sterol 24-C-methyltransferase (Candida albicans (strain SC5314 / ATCC MYA-2876) (Yeast))
Sequence (O74198 whole entry): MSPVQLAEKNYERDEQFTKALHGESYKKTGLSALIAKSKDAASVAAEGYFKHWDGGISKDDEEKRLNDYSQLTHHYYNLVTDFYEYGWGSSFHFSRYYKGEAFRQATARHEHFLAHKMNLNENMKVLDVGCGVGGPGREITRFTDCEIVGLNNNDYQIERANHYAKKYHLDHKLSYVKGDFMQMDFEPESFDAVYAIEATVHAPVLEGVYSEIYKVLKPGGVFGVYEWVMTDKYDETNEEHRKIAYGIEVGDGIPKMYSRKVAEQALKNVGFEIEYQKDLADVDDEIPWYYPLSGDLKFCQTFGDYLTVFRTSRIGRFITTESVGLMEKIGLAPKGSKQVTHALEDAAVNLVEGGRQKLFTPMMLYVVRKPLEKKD
Test: Inhibition of recombinant Candida albicans SC5314 Erg6 methyltransferase activity using zymosterol as substrate incubated for 15 mins followed by substrate addition by liquid scintillation counter analysis
# pIC50 values compiled below
Notebook: values listed as pIC50 are -log10 of the concentration (mol/L).

Can you share its pIC50? I mean this molecule: Cc1c(-n2c(-c3ccc(Br)cc3)cs/c2=N\c2ccccc2)c(=O)n(-c2ccccc2)n1C 5.99

Can you share its pIC50? I mean this molecule: Cc1c(-n2c(-c3ccc4ccccc4c3)cs/c2=N\c2ccccc2)c(=O)n(-c2ccccc2)n1C 6.56

---

# EC50 at 48 h values compiled below
Test: Cytotoxicity against human HUVEC cells incubated for 48 hrs by CCK-8 method
Type: toxicity, cell-based

- entry_smiles: "Cc1c(-n2c(-c3ccc(Br)cc3)cs/c2=N\\c2ccc3ccccc3c2)c(=O)n(-c2ccccc2)n1C"
  EC50 at 48 h: "> 50 µg/mL"

Can you share its EC50 at 48 h? I mean this compound: Cc1c(-n2c(-c3ccc(N(C)C)cc3)cs/c2=N\c2ccccc2)c(=O)n(-c2ccccc2)n1C > 50 µg/mL

Can you share its EC50 at 48 h? I mean this compound: Cc1c(-n2c(-c3ccc4ccccc4c3)cs/c2=N\c2cccc3ccccc23)c(=O)n(-c2ccccc2)n1C > 50 µg/mL

Can you share its EC50 at 48 h? I mean this compound: Cc1c(-n2c(-c3ccc(Br)cc3)cs/c2=N\c2ccccc2)c(=O)n(-c2ccccc2)n1C > 50 µg/mL

---

# EC50 at 48 h values compiled below
Test: Cytotoxicity against human BEAS-2B cells incubated for 48 hrs by CCK-8 method
Type: toxicity, cell-based

Look over these answered cases.
- entry_smiles: "Cc1c(-n2c(-c3ccc(N(C)C)cc3)cs/c2=N\\c2ccccc2)c(=O)n(-c2ccccc2)n1C"
  result: "> 50 µg/mL"
- entry_smiles: "Cc1c(-n2c(-c3ccc4ccccc4c3)cs/c2=N\\c2cccc3ccccc23)c(=O)n(-c2ccccc2)n1C"
  result: "> 50 µg/mL"
- entry_smiles: "Cc1c(-n2c(-c3ccc(Br)cc3)cs/c2=N\\c2ccc(Br)cc2)c(=O)n(-c2ccccc2)n1C"
  result: "> 50 µg/mL"
- entry_smiles: "Cc1c(-n2c(-c3ccc4ccccc4c3)cs/c2=N\\c2ccccc2)c(=O)n(-c2ccccc2)n1C"
  result: "> 50 µg/mL"
- entry_smiles: "Cc1c(-n2c(-c3ccc(Br)cc3)cs/c2=N\\c2ccccc2)c(=O)n(-c2ccccc2)n1C"
  result: "> 50 µg/mL"

We next turn to a different compound, shown below.
Can you share its EC50 at 48 h? I mean this compound: Cc1c(-n2c(-c3ccc(Br)cc3)cs/c2=N\c2ccc3ccccc3c2)c(=O)n(-c2ccccc2)n1C > 50 µg/mL

---

Experiment: Cytotoxicity against human BEAS-2B cells incubated for 48 hrs by CCK-8 method
Type: toxicity, cell-based
recorded_endpoint: EC50 at 48 h

Look over these answered cases.
- entry_smiles: "Cc1c(-n2c(-c3ccc4ccccc4c3)cs/c2=N\\c2ccc(Br)cc2)c(=O)n(-c2ccccc2)n1C"
  result: "> 50 µg/mL"
- entry_smiles: "Cc1c(-n2c(-c3ccc4ccccc4c3)cs/c2=N\\c2ccc(C(F)(F)F)cc2)c(=O)n(-c2ccccc2)n1C"
  result: "> 50 µg/mL"

We next turn to a different compound, shown below.
Can you share its EC50 at 48 h? I mean this compound: Cc1c(-n2c(-c3ccc4ccccc4c3)cs/c2=N\c2ccc3ccccc3c2)c(=O)n(-c2ccccc2)n1C > 50 µg/mL
